Tested on: Fibroblast
Assay: Multiplex assay against human fibroblast
Assay type: toxicity, cell-based
Settings: 12 h, 1 µM, compound concentration 1 uM, replicate 1
Classification by Population Tubulin-Different-Phenotype (%) | ranges: low end = under 10%, middle = from 10% up to 40%, high end = 40% and over

{"compound": "CCOc1cc(N2CCC(O)CC2)ccc1Nc1ncc2c(n1)N(C1CCCC1)CCC(=O)N2C", "target of assay": "Fibroblast", "qualitative label": "middle"}
{"compound": "Cc1cn(-c2cc(NC(=O)c3ccc4c(c3)CN(c3cncnc3)C[C@@H]4C)cc(C(F)(F)F)c2)cn1", "target of assay": "Fibroblast", "qualitative label": "low end"}
{"compound": "CCCn1c(=O)c2[nH]c(C34CC5CC(CC3C5)C4)nc2n(CCC)c1=O [ROLOFYLLINE]", "target of assay": "Fibroblast", "qualitative label": "high end"}
{"compound": "CC(C)N1CCC(C)(C)c2cc(C#Cc3ccc(C(=O)O)cc3)ccc21", "target of assay": "Fibroblast", "qualitative label": "high end"}

Quick check: band for N#Cc1cnc(Nc2cc(NC[C@H]3CNCCO3)c(C(F)(F)F)cn2)cn1 [SRA-737]
low end

Quick check: band for Nc1ccc(C(=O)Nc2cccc(-c3nc(N4CCOCC4)c4oc5ncccc5c4n3)c2)cn1
high end

Quick check: band for CCOc1cc2ncc(C#N)c(Nc3ccc(OCc4cccc(F)c4)c(Cl)c3)c2cc1NC(=O)/C=C/CN(C)C [HKI-357]
middle

---

Test system: HEK-293T
Test: Multiplex assay against HEK293T
Format: toxicity, cell-based
Conditions: human, 12 h, 10 µM, compound concentration 10 uM, replicate 1
# maps each entry to its Population Hoechst High Intensity Objects (%)
Numbers only; they are read as %.

{"compound": "Nc1nc2c(c(N3CCNCC3)n1)CCC1=C2[C@@H]2CCCC[C@@H]2O1", "experimental result": 15}
{"compound": "CNc1oc(-c2cccc3ccccc23)nc1C#N", "experimental result": 41}
{"compound": "CN(C)C/C=C/C(=O)Nc1cc2c(Nc3ccc(F)c(Cl)c3)ncnc2cc1O[C@H]1CCOC1.O=C(O)/C=C\\C(=O)O.O=C(O)/C=C\\C(=O)O [AFATINIB DIMALEATE]", "experimental result": 18}

// switching to the query compound
Note to self: Population Hoechst High Intensity Objects (%) of CCn1c(-c2nonc2N)nc2cnc(Oc3cccc(NC(=O)c4ccc(OCCN5CCOCC5)cc4)c3)cc21 [GSK-269962A] with HEK-293T was 12

---

Test system: Fibroblast
Experiment: Multiplex assay against human fibroblast
Assay type: toxicity, cell-based
Conditions: 12 h, 10 µM, compound concentration 10 uM, replicate 2
Classify by measured Population Healthy Nuclei (%): 1 if it is equal to or exceeds 40%, -1 if it is smaller.

{"molecule": "CCc1cc2c(cc1CC)CC(NC[C@H](O)c1ccc(O)c3[nH]c(=O)ccc13)C2 [INDACATEROL]", "target of assay": "Fibroblast", "qualitative label": 1}
{"molecule": "Cl.Cl.NC1(c2ccc(-c3nc4ccn5c(=O)[nH]nc5c4cc3-c3ccccc3)cc2)CCC1", "target of assay": "Fibroblast", "qualitative label": -1}
{"molecule": "Cc1nc(Cc2cccc(C(F)(F)F)c2)sc1-c1ccc(C(N)=O)nc1 [TP-024n]", "target of assay": "Fibroblast", "qualitative label": 1}
{"molecule": "CC(C)(C)c1cnc(CSc2cnc(NC(=O)C3CCNCC3)s2)o1 [BMS-387032]", "target of assay": "Fibroblast", "qualitative label": -1}
{"molecule": "CN(C)C/C=C/C(=O)Nc1cc2c(Nc3ccc(F)c(Cl)c3)ncnc2cc1O[C@H]1CCOC1.O=C(O)/C=C\\C(=O)O.O=C(O)/C=C\\C(=O)O [AFATINIB DIMALEATE]", "target of assay": "Fibroblast", "qualitative label": 1}

Is the recorded value of Population Healthy Nuclei (%) equal to or greater than 40% for this molecule? CN(C)CCOc1ccc(-c2nc(-c3ccncc3)c(-c3ccc4c(c3)CC/C4=N\O)[nH]2)cc1 [SB590885]
-1
